- study-target: P2X purinoceptor 7 (Homo sapiens) (UniProt Q99572)
- Sequence (Q99572 whole entry): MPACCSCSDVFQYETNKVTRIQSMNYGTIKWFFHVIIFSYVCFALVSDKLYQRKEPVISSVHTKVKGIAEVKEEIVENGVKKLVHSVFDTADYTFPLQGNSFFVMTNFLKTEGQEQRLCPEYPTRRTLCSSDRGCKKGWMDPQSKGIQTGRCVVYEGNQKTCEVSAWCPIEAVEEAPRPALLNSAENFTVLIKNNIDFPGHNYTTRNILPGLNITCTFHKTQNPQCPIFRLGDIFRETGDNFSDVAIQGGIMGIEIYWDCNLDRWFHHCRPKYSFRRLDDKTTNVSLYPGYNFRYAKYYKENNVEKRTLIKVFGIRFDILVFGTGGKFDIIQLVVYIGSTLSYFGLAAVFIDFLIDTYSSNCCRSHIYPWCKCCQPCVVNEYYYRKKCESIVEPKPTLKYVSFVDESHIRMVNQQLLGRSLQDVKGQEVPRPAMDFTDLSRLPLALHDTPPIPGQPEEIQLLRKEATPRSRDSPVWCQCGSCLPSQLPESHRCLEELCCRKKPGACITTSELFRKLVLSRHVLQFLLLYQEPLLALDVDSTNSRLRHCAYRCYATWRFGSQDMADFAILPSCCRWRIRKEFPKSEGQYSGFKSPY
- assay-protocol: Antagonist activity at human P2X7 receptor expressed in HEK293 cells assessed as inhibition of BzATP-induced EtBr uptake at 1 uM after 2 hrs by fluorescence assay relative to control
- Type: cell-based
Please note: Satisfied applies when inhibition is 40% or greater, and Not satisfied applies otherwise.

| input-smiles | assigned-label |
| --- | --- |
| COC(=O)c1cc2c(NC(=O)C34CC5CC(CC(C5)C3)C4)cccc2n(Cc2ccc(Br)cc2)c1=O | Satisfied |
| O=C(CC12CC3CC(CC(C3)C1)C2)Nc1cccc2nc(-c3ccccc3)ccc12 | Satisfied |
| CNC(=O)c1cc2c(NC(=O)C34CC5CC(CC(C5)C3)C4)cccc2n(Cc2ccc(OC)cc2)c1=O | Not satisfied |
| CN([C@@H](Cc1ccc(OS(=O)(=O)c2cccc3cnccc23)cc1)C(=O)N1CCN(c2ccccc2)CC1)S(=O)(=O)c1cccc2cnccc12 | Satisfied |
| COC(=O)c1cc2c(NC(=O)Cc3ccccc3)cccc2n(Cc2ccc(OC)cc2)c1=O | Not satisfied |
| COc1ccc(Cn2c(=O)c(C(=O)N(C)C)cc3c(NC(=O)C45CC6CC(CC(C6)C4)C5)cccc32)cc1 | Not satisfied |
| COC(=O)c1ccc(-c2ccc3c(NC(=O)CC45CC6CC(CC(C6)C4)C5)cccc3n2)cc1 | Satisfied |
| CCCOC(=O)c1cc2c(NC(=O)C34CC5CC(CC(C5)C3)C4)cccc2n(Cc2ccc(OC)cc2)c1=O | Satisfied |
| O=C(Nc1cccc2nc(Cl)ccc12)C12CC3CC(CC(C3)C1)C2 | Not satisfied |
| COc1ccc(Cn2c(=O)c(C(=O)OC(C)C)cc3c(NC(=O)C45CC6CC(CC(C6)C4)C5)cccc32)cc1 | Satisfied |
| COC(=O)c1cc2c(NC(=O)C34CC5CC(CC(C5)C3)C4)cccc2n(Cc2ccc(OC(F)(F)F)cc2)c1=O | Satisfied |
| COC(=O)c1cc2c(NC(=O)CCC3CCCCC3)cccc2n(Cc2ccc(OC)cc2)c1=O | Not satisfied |
| O=C(CC12CC3CC(CC(C3)C1)C2)Nc1cccc2nc(-c3cccc(O)c3)ccc12 | Not satisfied |
| COC(=O)c1cc2c(NC(=O)C3CCCCC3)cccc2n(Cc2ccc(OC)cc2)c1=O | Satisfied |
| O=C(CC12CC3CC(CC(C3)C1)C2)Nc1cccc2nc(Cl)ccc12 | Satisfied |
| COC(=O)c1cc2c(NC(=O)CC34CC5CC(CC(C5)C3)C4)cccc2n(Cc2ccc(OC)cc2)c1=O | Satisfied |
| O=C(CC1CCCCC1)Nc1cccc2nc(Cl)ccc12 | Satisfied |
| COC(=O)c1cc2c(NC(=O)CCc3ccccc3)cccc2n(Cc2ccc(OC)cc2)c1=O | Not satisfied |

---

- assay-protocol: Metabolic stability in human liver microsomes assessed as parent compound remaining at 1 uM up to 30 mins in presence of NADPH by LC-MS/MS analysis
- Format: ADME, microsome
- condition-notes: read-out: Stability
hey, just use yes (1) if measured remaining at 0.5 h, 1 µM is less than 10%, otherwise no (0)

| compound | assigned-label |
| --- | --- |
| O=C(CC12CC3CC(CC(C3)C1)C2)Nc1cccc2nc(Cl)ccc12 | yes (1) |
| COc1ccc(CCN(C)CCCC(C#N)(c2ccc(OC)c(OC)c2)C(C)C)cc1OC (stereo unspecified) | no (0) |
| O=C(CC12CC3CC(CC(C3)C1)C2)Nc1cccc2nc(-c3ccc(C(=O)O)cc3)ccc12 | no (0) |
| O=C(CC12CC3CC(CC(C3)C1)C2)Nc1cccc2nc(-c3ccc(CO)cc3)ccc12 | no (0) |
| O=C(CC12CC3CC(CC(C3)C1)C2)Nc1cccc2nc(-c3ccc(O)cc3)ccc12 | no (0) |
| Nc1ccc(-c2ccc3c(NC(=O)CC45CC6CC(CC(C6)C4)C5)cccc3n2)cc1 | no (0) |
